Target: P450-SS9 (cytochrome P450 from Photobacterium profundum strain SS9) (Photobacterium profundum, UniProt Q6LGK6)
Experiment: absorbance
The label is y for Kd below 20 µM and n for Kd equal to or exceeding 20 µM.

Solved entries (count: 4):
CCCCCCCC/C=C\CCCCCCCC(=O)NCC(=O)O: n
CCCCC/C=C\C/C=C\C/C=C\C/C=C\CCCC(=O)O: y
CCCCCCCCCCCCCCCC(=O)O: n
CCCCC/C=C\C/C=C\C/C=C\C/C=C\CCCC(=O)NCC(=O)O: y

From here, focus on the item given below.
Consider the compound CCCCCCCCCCCCCC(=O)O . Is its Kd strictly less than 20 µM?
y
